Each record here notes measured TGI.
Test system: CAKI-1 renal
Experiment: NCI tumour cell line growth inhibition, 48 h

Illustrative cases are given below, each with its answer.
>  <Molecule>
CSC1=Nc2c(c(C)c(-c3ccccc3)n2COC(CO)CO)C2=NC(=O)C(C)N12 (stereo unspecified)

>  <TGI>
> 100 µM

$$$$
>  <Molecule>
CCN1CCN(CCOc2ccc(CNc3ccc4nc(CCC5CCCCC5)[nH]c4c3)cc2)CC1

>  <TGI>
4.11 µM

$$$$
>  <Molecule>
CN(CCCNC(=O)c1cn(C)c2c1ccc1cc(Cl)ccc12)CCCNC(=O)c1cn(C)c2c1ccc1cc(Cl)ccc12

>  <TGI>
9.14 µM

$$$$
>  <Molecule>
COc1ccc(CN2c3ccccc3Sc3ccccc32)cc1F

>  <TGI>
> 100 µM

$$$$
>  <Molecule>
CCOP(=O)(CCP(=O)(OCC)OCC)OCC.C[CH2][Sn]([Cl])([Cl])[CH2]C

>  <TGI>
35 µM

$$$$
>  <Molecule>
CC(=O)OC1(C#N)CC2OC1C1C2N1C(=O)c1ccccc1 (stereo unspecified)

>  <TGI>
> 100 µM

$$$$
>  <Molecule>
c1cncc(CNc2ccccc2-c2nnc(Nc3ccc4c(c3)OCO4)o2)c1

>  <TGI>
> 100 µM

$$$$
>  <Molecule>
COCCO

>  <TGI>
> 100 µM

$$$$

[ask] Which value of TGI has been reported for OC(c1ccccc1)(c1ccccc1)c1ccccn1 in the records?
[reply] > 100 µM

[ask] Which value of TGI has been reported for CCc1cccc(C(C)CC)c1N=C(NC(=O)c1ccccc1C(=O)NC(=Nc1c(CC)cccc1C(C)CC)SC)SC (stereo unspecified) in the records?
[reply] > 100 µM

[ask] Which value of TGI has been reported for CC1=CC(c2ccccc2)OP1(=O)c1ccccc1 (stereo unspecified) in the records?
[reply] > 100 µM

----------
Each record here notes measured TGI.
Tested on: K-562 leukemia
Test: NCI tumour cell line growth inhibition, 48 h

Illustrative cases are given below, each with its answer.
>  <Molecule>
Cc1cc(C)nc(NS(=O)(=O)c2ccc(Nc3c4ccccc4nc4c(C(=O)NCCN(C)C)ccc(Cl)c34)cc2)n1

>  <TGI>
11.7 µM

$$$$
>  <Molecule>
C=C1CC[C@@H]2C(C)(C)[C@@H](O)CC[C@@]2(C)[C@@H]1COc1ccc2ccc(=O)oc2c1

>  <TGI>
> 100 µM

$$$$
>  <Molecule>
Cc1c2cc[n+](COC(=O)c3ccccc3)cc2c(C)c2c1[nH]c1ccccc12

>  <TGI>
1.52 µM

$$$$
>  <Molecule>
COc1ccc(/C=C2\N=C(c3ccccc3)OC2=O)c(OCc2ccccc2)c1

>  <TGI>
> 100 µM

$$$$
>  <Molecule>
C/C(CC(O)(C(F)(F)F)C(F)(F)F)=N\N

>  <TGI>
> 10 µM

$$$$

[ask] Which value of TGI has been reported for O=C1CCc2c3c(c4c([nH]c5ccccc54)c2CC1)C(=O)NC3=O in the records?
[reply] > 100 µM

[ask] Which value of TGI has been reported for Cc1ccc(SSCCCS(=O)O)cc1 in the records?
[reply] > 100 µM

----------
Each record here notes measured TGI.
Tested on: U251 CNS
Test: NCI tumour cell line growth inhibition, 48 h

>  <Compound>
O=C(CC(=O)c1ccncc1)c1ccccc1

>  <TGI>
> 100 µM

$$$$
>  <Compound>
CCOC(=O)/C(C(=S)NC)=C(/N)N1CCCC1

>  <TGI>
> 100 µM

$$$$
>  <Compound>
COc1ccc(/C=C/c2cc(OC)c(O[Si](C)(C)C(C)(C)C)c(OC)c2)cc1

>  <TGI>
> 100 µM

$$$$
>  <Compound>
CC(=O)OC1C=CC2CCN3C(=O)c4cc5c(cc4[C@H]1C23)OCO5 (some centres not stated)

>  <TGI>
> 100 µM

$$$$

[ask] Which value of TGI has been reported for CCSC1(SCC)CCN(C=NC(C)(C)C)C1 in the records?
[reply] > 100 µM

[ask] Which value of TGI has been reported for CN(c1c(Cl)cccc1Cl)S(=O)(=O)c1ccccc1[N+](=O)[O-] in the records?
[reply] > 100 µM

[ask] Which value of TGI has been reported for Nc1nnc2nc(CC(=O)/C=C/c3ccccc3)c(=O)[nH]n12 in the records?
[reply] > 100 µM

[ask] Which value of TGI has been reported for C=CCN1CCC(OC(=O)C(O)(/C=C\CC)C2CCCC2)CC1 (configuration not stated) in the records?
[reply] > 100 µM

[ask] Which value of TGI has been reported for NC(CCCCCP(=O)(O)O)C(=O)O (configuration not stated) in the records?
[reply] > 100 µM

[ask] Which value of TGI has been reported for Cc1c2ccccc2c(C)c2c3c(ccc12)C(=O)C=CC3=O in the records?
[reply] > 100 µM

[ask] Which value of TGI has been reported for O=C(O)CC(NC(=O)C(F)(F)F)C(=O)NC1Cc2ccccc2OC1=O (configuration not stated) in the records?
[reply] > 100 µM

[ask] Which value of TGI has been reported for CCCCCCc1nn2c(-c3ccc(C)cc3)nnc2s1 in the records?
[reply] > 100 µM

----------
Each record here notes measured TGI.
System: CCRF-CEM leukemia
Assay: NCI tumour cell line growth inhibition, 48 h

>  <Structure Smiles String>
Cc1csc2c(P(=O)(OC(C)C)OC(C)C)c(-c3ccccc3)cn12

>  <Measure Name>
TGI

>  <Result>
37.2 µM

$$$$

[ask] Which value of TGI has been reported for O=C(Nc1ccc(Cl)cc1)c1cc(S(=O)(=O)Nc2n[nH]c(=O)[nH]2)c(SSc2cc(Cl)c(C(=O)Nc3ccc(Cl)cc3)cc2S(=O)(=O)Nc2n[nH]c(=O)[nH]2)cc1Cl in the records?
[reply] > 100 µM

[ask] Which value of TGI has been reported for COc1ccc(/C=C/c2cc(OC)c(O[Si](C)(C)C(C)(C)C)c(OC)c2)cc1 in the records?
[reply] > 100 µM

[ask] Which value of TGI has been reported for CSC1=N/C(=C\c2cccs2)C(=O)N1CN1CCOCC1 in the records?
[reply] > 100 µM

----------
Test system: SR leukemia
Assay: NCI tumour cell line growth inhibition, 48 h
Measure Name: TGI (µM)
Expressed in µM, but write only the number.

Illustrative cases are given below, each with its answer.
>  <Molecule>
COc1ccc(Nc2c3ccccc3nc3c2c2ccccc2n3C)cc1

>  <Target Entity>
SR leukemia

>  <Measure Name>
TGI

>  <Quantitative Readout>
14

$$$$
>  <Molecule>
CCN(CC)CCn1ncc2ccc3c(c(=O)c4cccnc4n3CCN(CC)CC)c21

>  <Target Entity>
SR leukemia

>  <Measure Name>
TGI

>  <Quantitative Readout>
1.3

$$$$
>  <Molecule>
Cc1csc2c(P(=O)(OC(C)C)OC(C)C)c(-c3ccccc3)cn12

>  <Target Entity>
SR leukemia

>  <Measure Name>
TGI

>  <Quantitative Readout>
36.7

$$$$
>  <Molecule>
C=C1CC[C@@H]2C(C)(C)[C@@H](O)CC[C@@]2(C)[C@@H]1COc1ccc2ccc(=O)oc2c1

>  <Target Entity>
SR leukemia

>  <Measure Name>
TGI

>  <Quantitative Readout>
83.9

$$$$
>  <Molecule>
CCOC(=O)c1ccc(N=C2SC(=S)N(c3ccc(F)cc3)C2=Nc2ccc(C(=O)OCC)cc2)cc1

>  <Target Entity>
SR leukemia

>  <Measure Name>
TGI

>  <Quantitative Readout>
29.3

$$$$

[ask] Which value of TGI has been reported for CCCCc1ccc(Nc2nc3c(ncn3C3OC(COC(C)=O)C(OC(C)=O)C3OC(C)=O)c(=O)[nH]2)cc1 (stereo unspecified) in the records?
[reply] 35.9

----------
System: SNB-78 CNS
Test: NCI tumour cell line growth inhibition, 48 h
Response key: Y means TGI >= 40 µM; N means TGI < 40 µM.

>  <Compound>
CCOC(=O)C1=C(Nc2ccccc2)OC/C1=N\NC(=O)Cc1ccccc1

>  <Discrete Label>
Y

$$$$
>  <Compound>
COc1ccc2c(=O)c([Se]c3coc4cc(OC)ccc4c3=O)coc2c1

>  <Discrete Label>
Y

$$$$
>  <Compound>
OC1CN(OC/C=C/c2ccccc2)CC(O)C1O (stereo not drawn)

>  <Discrete Label>
Y

$$$$

[ask] Determine whether this compound has TGI no lower than 40 µM: N=C(N)n1ncc(Cl)c(Cl)c1=O
[reply] N

[ask] Determine whether this compound has TGI no lower than 40 µM: COC1/C=C\C=C(/C)C(=O)NC2=CC(=O)C=C(C2=O)C(OC)C(C)CC(OC)C(OC)C(C)/C=C(/C)C1OC(N)=O (stereo not drawn)
[reply] N

[ask] Determine whether this compound has TGI no lower than 40 µM: Clc1ccccc1C(n1cc(Br)cn1)n1cc(Br)cn1
[reply] Y

[ask] Determine whether this compound has TGI no lower than 40 µM: O=C(NCCCN1CCN(CCCNC(=O)c2cnc3ccccc3n2)CC1)c1cnc2ccccc2n1
[reply] Y

[ask] Determine whether this compound has TGI no lower than 40 µM: C=CCn1c2ccccc2c2c(C)c3cnccc3c(C)c21
[reply] Y

[ask] Determine whether this compound has TGI no lower than 40 µM: CCCCCCCCCCCCCCCCOC(=O)C(C(=O)OCCCCCCCCCCCCCCCC)[N+](C)(C)CCOC(C)=O
[reply] Y

[ask] Determine whether this compound has TGI no lower than 40 µM: Cc1ccc2nc3c(Cl)cc(=O)cc-3sc2c1
[reply] Y

[ask] Determine whether this compound has TGI no lower than 40 µM: CC(=O)OC1C=CC2CCN3C(=O)c4cc5c(cc4[C@H]1C23)OCO5 (stereo partly drawn)
[reply] Y

[ask] Determine whether this compound has TGI no lower than 40 µM: CC(C)c1cc(C(C)C)c(S(=O)(=O)NN)c(C(C)C)c1
[reply] Y

[ask] Determine whether this compound has TGI no lower than 40 µM: CCOP(=O)(CCP(=O)(OCC)OCC)OCC.C[CH2][Sn]([Cl])([Cl])[CH2]C
[reply] Y
